meta.source: PubChem BioAssay (NCI)

Documented growth across a set of compounds
# Tested on: T-47D breast
# procedure text: NCI-60 one-dose screen, 48 h (100 = growth as untreated, 0 = no growth, -100 = all killed)
# assay setup: 10 µM
The panel holds about 83,000 compounds, 20% with a hit somewhere; the sample as a whole holds those more often. Active and inactive are the calls of the source. The calls were made as follows: active = growth percent below 10; inactive = the rest.
recorded metric: growth

compound=CN1CCN(c2nc(-c3cccnc3)nc3sc4c(c23)CCCCCC4)CC1 target="T-47D breast" assay_value="77.4% (inactive)"
compound=C/C(=N\NC(N)=S)C(C)(C)O target="T-47D breast" assay_value="57.1% (inactive)"
compound=CC(=O)[C@H]1CC[C@H]2[C@@H]3CC[C@@H]4CC=C(C=O)C[C@]4(C)[C@H]3CC[C@]12C target="T-47D breast" assay_value="85.6% (inactive)"
compound=CCOC(=O)C1=C(Nc2ccc(OC)cc2)C(N)=NC1=N target="T-47D breast" assay_value="47.5% (inactive)"
compound=c1ccc(COCC[P+](c2ccccc2)(c2ccccc2)c2ccccc2)cc1 target="T-47D breast" assay_value="12% (inactive)"
compound=CCN(Cc1ccccc1)C1CCN(Cc2cc(Br)ccc2O)CC1 target="T-47D breast" assay_value="44.3% (inactive)"
compound="COc1cccc2c1C(=O)c1c(O)c3c(c(O)c1C2=O)C[C@@](O)(C(=O)COC(=O)c1cccnc1)C[C@@H]3OC1CC(N)C(O)C(C)O1 (stereo not given in full)" target="T-47D breast" assay_value="-2.37% (active)"
compound="CC(Oc1ccc(Cl)cc1)c1ccccc1 (stereo not given)" target="T-47D breast" assay_value="95.7% (inactive)"
compound="CC(=O)OC1Oc2ccccc2-c2oc(=O)c(-c3ccc(F)cc3)cc21 (stereo not given)" target="T-47D breast" assay_value="77.2% (inactive)"
compound=O=S(=O)(NCl)c1ccccc1 target="T-47D breast" assay_value="92% (inactive)"
compound=CCOC(=O)[C@@H](Cc1ccccc1)NC(=O)c1[nH]c2ccc(Cl)cc2c(=O)c1C target="T-47D breast" assay_value="87.1% (inactive)"
compound=Cc1nn2c(/C=C3/C(=O)Nc4ccc(Cl)cc43)c(-c3ccccc3)nc2s1 target="T-47D breast" assay_value="-1.58% (active)"
compound=O=CNc1c(Cl)cc2c(c1Cl)Cc1cc([N+](=O)[O-])ccc1-2 target="T-47D breast" assay_value="30.6% (inactive)"
compound=COc1ccc(-c2cc(/C=C/C(=O)c3ccc(N)cc3)[nH]n2)cc1OC target="T-47D breast" assay_value="50.3% (inactive)"
compound=COC(=O)[C@]12CC[C@@H](C)[C@H](C)[C@@H]1C1=CC[C@@H]3[C@@]4(C)C[C@@H](O)[C@H](O)[C@@](C)(CO)[C@@H]4[C@H](O)C[C@@]3(C)[C@]1(C)CC2 target="T-47D breast" assay_value="-47.1% (active)"
compound=COc1ccc(-c2nc(NC(=O)CS(=O)(=O)c3ccc(F)cc3)sc2C)cc1 target="T-47D breast" assay_value="33.2% (inactive)"
compound=COc1ccccc1Cn1cc2c(c1-c1ccccc1)CCc1cnoc1-2 target="T-47D breast" assay_value="29.4% (inactive)"
compound=Cc1nc2ccc(-n3c(-c4ccc(Cl)cc4)nc4ccccc4c3=O)cc2n1Cc1ccccc1 target="T-47D breast" assay_value="78.8% (inactive)"
compound="COc1cc(C(c2c[nH]c3ccccc23)N2CCCC2)ccc1OCc1ccccc1 (stereo not given)" target="T-47D breast" assay_value="81.5% (inactive)"
compound=Cc1nc(Nc2nc3ccccc3o2)nc(-c2cccc([N+](=O)[O-])c2)c1C(=O)Nc1ccc(F)c(Cl)c1 target="T-47D breast" assay_value="5.31% (active)"

----------
# System: TK-10 renal
# procedure text: NCI-60 one-dose screen, 48 h (100 = growth as untreated, 0 = no growth, -100 = all killed)
# assay setup: 10 µM
The panel holds about 83,000 compounds, 20% with a hit somewhere; the sample as a whole holds those more often.
Exam item: assign 1 to entries whose growth is below 70% and 0 to entries at or above 70%. Note that a value of exactly 70% receives 0.

compound="COc1ccc(C2C=C(c3ccc(Cl)c(Cl)c3)N=C3SC(C)=CN32)cc1OC (stereo not given)" assigned_category=0
compound=COc1ccc(-c2nc(-c3ccccc3)c(-c3ccccc3)[nH]2)cc1OC1CCCC1 assigned_category=0
compound=COc1ccc2nc(C)cc(Nc3ccc(Cl)cc3)c2c1 assigned_category=0
compound=COc1cc(-c2nc3cc(Cl)c(Cl)cc3[nH]2)ccc1OCC(=O)NN assigned_category=0
compound=CC1(C)CC(=O)c2c(nc3ccc(Cl)cc3c2-c2ccccc2)C1 assigned_category=0
compound=C=CCOc1ccc2c(c1)CC[C@@H]1[C@@H]2CC[C@]2(C)C(=O)/C(=N/O)C[C@@H]12 assigned_category=1
compound="CC1(CO)CCCC12OCCO2 (stereo not given)" assigned_category=0
compound=COc1cc(-c2nc3ccccc3[nH]2)ccc1OCc1nnc(-c2ccc(Br)cc2)o1 assigned_category=0
compound="CC(CNC(Cc1ccccc1)c1ccccc1)NC(Cc1ccccc1)c1ccccc1 (stereo not given)" assigned_category=1
compound=COc1ccc2oc(=O)cc(C(c3ccc[nH]3)c3ccc[nH]3)c2c1 assigned_category=1

----------
# Test system: KM12 colon
# procedure text: NCI-60 one-dose screen, 48 h
# assay setup: 10 µM
About 83,000 compounds went through this panel and 20% of them were active in at least one assay; those are over-represented in the sample as a whole. Active and inactive are the calls of the source. The calls were made as follows: active = growth percent below 10; inactive = the rest.
Possible outcomes: yes = active, no = inactive

molecule=O=C1/C(=C/c2ccc(O)cc2)Cc2ccc(Cl)cc21 target="KM12 colon" assigned_category=no
molecule="Cc1cc(O)c(C2=NN(c3ccc(S(N)(=O)=O)cc3)C(c3ccc(N(C)C)cc3)C2)c(C)c1Cl (stereo not drawn)" target="KM12 colon" assigned_category=no
molecule="CC(=O)c1c(O)cc2c3c1OC(C)(C)C1CCC(C)(CC31)O2 (stereo not drawn)" target="KM12 colon" assigned_category=no
molecule=CC(=O)O[C@H]1CC[C@@]2(C)[C@@H](CC[C@@H]3[C@@H]2CC[C@]2(C)C=C(C=O)C[C@@H]32)C1 target="KM12 colon" assigned_category=no
molecule="COc1ccc(-c2nsc3c2NC(=O)CC3c2cccc(Cl)c2)cc1 (stereo not drawn)" target="KM12 colon" assigned_category=no
molecule=CS(=O)(=O)Nc1ccc(OCc2nnc(-c3ccc(Cl)cc3)o2)c(F)c1 target="KM12 colon" assigned_category=no
molecule="COc1ccc(C2C=C(c3ccc(Cl)cc3)N=C3SC=CN32)c(Br)c1 (stereo not drawn)" target="KM12 colon" assigned_category=no
molecule=CCCCCCCCCCCC(=O)NCCCN(C)C target="KM12 colon" assigned_category=no
molecule=Cc1cc(C(C)(C)CC(C)(C)C)ccc1OCCOCC[N+](C)(C)Cc1ccccc1 target="KM12 colon" assigned_category=yes
molecule=Oc1ccc(Cn2cc3c(c2-c2ccccc2)CCc2cnoc2-3)cc1 target="KM12 colon" assigned_category=no
molecule=Cc1ccc(S(=O)(=O)Oc2ccccc2-c2ccccc2)cc1 target="KM12 colon" assigned_category=no
molecule=COc1cc2c3c(cccc3c1)C(=O)N(CCN1CCCC1)C2=O target="KM12 colon" assigned_category=no
molecule="COc1ccc(/C=C2\\CCC3C(CCCC34OCCO4)C2=O)cc1 (stereo not drawn)" target="KM12 colon" assigned_category=no
molecule=O=C1NN(c2ccccc2)C(c2cccnc2)=N/C1=C\c1cccnc1 target="KM12 colon" assigned_category=no
molecule=CNCCCNCCCN1C(=O)c2ccc3c4c(ccc(c24)C1=O)C(=O)N(CCCNCc1ccccc1OC)C3=O target="KM12 colon" assigned_category=yes
molecule="CCC1(C)OC(=O)NC1=O (stereo not drawn)" target="KM12 colon" assigned_category=no
molecule=C#C[C@]1(O)CC[C@H]2[C@@H]3CC[C@H]4CC(F)(F)CC[C@]4(C)[C@H]3CC[C@@]21C target="KM12 colon" assigned_category=no
molecule=Clc1cc(Cl)c(OCCCCCCN2CCNCC2)c(Cl)c1 target="KM12 colon" assigned_category=no
molecule="CC(C)C(C)C(N)C(=O)O (stereo not drawn)" target="KM12 colon" assigned_category=no
molecule="O=C(c1ccccc1)C(Nc1ccccc1)c1ccccc1 (stereo not drawn)" target="KM12 colon" assigned_category=no
molecule=CCCCCCCCCCCCCCCCCBr target="KM12 colon" assigned_category=no
molecule=FC(F)(F)c1ccc(-c2cnc(Cl)nc2NCc2cc(C(F)(F)F)cc(C(F)(F)F)c2)cc1 target="KM12 colon" assigned_category=no
molecule=Cc1cc(C)c2nc(C)c(C)[n+]([O-])c2c1 target="KM12 colon" assigned_category=no

----------
# Test system: SR leukemia
# procedure text: NCI-60 one-dose screen, 48 h (100 = growth as untreated, 0 = no growth, -100 = all killed)
# assay setup: 10 µM
Compounds without any hit were thinned out: in the full panel of roughly 83,000, 20% have a hit.
recorded metric: growth (%)

compound=CCc1ccc(-c2nnc(COc3ccc(-c4nc5ccc(C)cc5[nH]4)cc3OC)o2)cc1 unit_text=% assay_value=-31.5
compound=O=C(NCCCl)c1cc(Cl)cc(Cl)c1 unit_text=% assay_value=103
compound="COc1cc(C(c2c[nH]c3ccccc23)N2CCCC2)ccc1OCc1ccccc1 (stereo unspecified)" unit_text=% assay_value=34.9
compound=COc1cc(Cn2c(-c3ccccc3)c(Cl)c3c2-c2oncc2CC3)cc(OC)c1 unit_text=% assay_value=0.637
compound=Cc1ccc(NC(=O)/C=N/O)cc1C unit_text=% assay_value=87
compound=FC(F)(F)c1ccc(-c2cnc(Cl)nc2NC2CCCCCC2)cc1 unit_text=% assay_value=39.2
compound=CCOC(=O)C1=C(Nc2ccc(OC)cc2)C(N)=NC1=N unit_text=% assay_value=4.05
compound="O=c1[nH]c(=O)n(C2C[C@@H](O)[C@@H](CO)O2)cc1F (stereo partly specified)" unit_text=% assay_value=25.9
compound=COc1ccc(-c2nnc(COc3ccc(NC(=O)Nc4ccccc4)cc3F)o2)cc1 unit_text=% assay_value=36.1
compound=CN(C)CCCN(Cc1ccccc1O)C(=S)Nc1ccc(Cl)cc1 unit_text=% assay_value=95
compound=COc1ccc(Cn2cc3c(c2-c2ccccc2)CC(C)(C)c2cnoc2-3)cc1 unit_text=% assay_value=24.5
